Measured values drawn from patent US9598424B2 for this set.

Molecular target: TBK1 (Homo sapiens, UniProt Q9UHD2)
Construct: host or cells: RA1-ISRE beta-lactamase reporter cells
Sequence (Q9UHD2 whole entry): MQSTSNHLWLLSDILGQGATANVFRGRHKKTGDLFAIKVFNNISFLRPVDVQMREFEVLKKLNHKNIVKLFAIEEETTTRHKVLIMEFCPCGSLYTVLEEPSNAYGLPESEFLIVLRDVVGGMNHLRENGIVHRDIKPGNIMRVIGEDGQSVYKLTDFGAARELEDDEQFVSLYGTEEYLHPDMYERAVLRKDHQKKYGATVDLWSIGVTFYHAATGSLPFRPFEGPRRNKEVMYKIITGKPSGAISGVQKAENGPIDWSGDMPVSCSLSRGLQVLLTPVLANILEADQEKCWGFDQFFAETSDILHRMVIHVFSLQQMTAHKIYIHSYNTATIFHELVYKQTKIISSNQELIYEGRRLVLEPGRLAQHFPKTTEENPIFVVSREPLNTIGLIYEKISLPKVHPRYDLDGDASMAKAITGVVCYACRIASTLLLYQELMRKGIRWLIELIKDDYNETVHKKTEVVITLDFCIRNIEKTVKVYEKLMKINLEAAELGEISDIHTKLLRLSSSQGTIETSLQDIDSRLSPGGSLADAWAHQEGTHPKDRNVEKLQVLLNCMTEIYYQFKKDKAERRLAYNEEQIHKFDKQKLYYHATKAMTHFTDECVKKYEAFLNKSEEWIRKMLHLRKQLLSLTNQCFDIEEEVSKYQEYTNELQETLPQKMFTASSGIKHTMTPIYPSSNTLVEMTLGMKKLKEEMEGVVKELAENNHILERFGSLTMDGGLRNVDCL
Experiment: Inhibition of TBK1 in Cells (TLR3 driven ISRE β-lactamase reporter assay)
Format: cell-based
Details: poly IC-LMW stimulation 16 hrs; -log(EC50), EC50 molar; read-out: Inhibition of TBK1 in cells pEC50 (EC) (converted)
Exercise: state measured EC50 for each of the compounds provided.
One number for each entry, in µM.

Look over these answered cases.
-- ask Give EC50 for this entry on TBK1 (Homo sapiens, UniProt Q9UHD2): O=C(N[C@H]1CCOC1)c1cc(-c2ccc3nc(NC(=O)C4CC4)cn3c2)[nH]n1
-- reply 25.1

-- ask Give EC50 for this entry on TBK1 (Homo sapiens, UniProt Q9UHD2): CC(F)(F)CNC(=O)c1cc(-c2ccc3nc(NC(=O)C4CC4)cn3c2)cs1 [Example 57]
-- reply 0.219

-- ask Give EC50 for this entry on TBK1 (Homo sapiens, UniProt Q9UHD2): O=C(Nc1cn2cc(-c3csc(C(=O)N4CC(F)(F)C[C@H]4CO)n3)ccc2n1)C1CC1
-- reply 0.851

In the following, a different compound is considered.
-- ask Give EC50 for this entry on TBK1 (Homo sapiens, UniProt Q9UHD2): Cc1c(-c2ccc3nc(NC(=O)C4CC4)cn3c2)n[nH]c1C(=O)NCC(F)(F)F
-- reply 3.31

---

Target: Full length human TBK1 (Homo sapiens, UniProt Q9UHD2)
Construct: Full length human TBK1 with an N-terminal His-tag; His-tag (N); made in house; host or cells: Sf9 insect cells (baculovirus, pFastBac1)
Sequence (Q9UHD2 whole entry): as above
Assay: Inhibition of TBK1 Enzyme (Caliper microfluidic assay)
Format: biochemical
Details: 25 μM ATP, 60 min at RT; -log(IC50), IC50 molar; read-out: TBK1 Inhibition (pIC50) (converted)
measurementLabel: IC50 (nM)
Answers are plain numbers, in nM.

Look over these answered cases.
-- ask Note down IC50 recorded for Cc1sc(C(=O)NCC(F)(F)F)cc1-c1cn2cc(NC(=O)C3CC3)nc2cn1
-- reply 25.1

-- ask Note down IC50 recorded for NC(=O)[C@@H]1CC(F)(F)CN1C(=O)c1cc(-c2ccc3nc(NC(=O)C4CC4)cn3c2)cs1
-- reply 631

-- ask Note down IC50 recorded for COCCN(CC(F)(F)F)C(=O)c1cc(-c2ccc3nc(NC(=O)C4CC4)cn3c2)cs1
-- reply 20

In the following, a different molecule is considered.
-- ask Note down IC50 recorded for O=C(Nc1cn2cc(-c3csc(C(=O)N4CCOCC4)c3)ccc2n1)C1CC1
-- reply 251

---

Biological target: TBK1 (Homo sapiens)
Construct: host or cells: RA1-ISRE beta-lactamase reporter cells
Experiment: Inhibition of TBK1 in Cells (TLR3 driven ISRE β-lactamase reporter assay)
Type: cell-based
Conditions: poly IC-LMW stimulation 16 hrs; -log(EC50), EC50 molar; read-out: Inhibition of TBK1 in cells pEC50 (EC) (converted)
Doc: threshold 0.8 µM (exclusive). Items with EC50 beneath it return criterion met; others return criterion not met.

Record excerpt, results attached:
-- ask Please let me know if O=C(CF)Nc1cn2cc(-c3csc(C(=O)NCC(F)(F)F)c3)ccc2n1 [Example 16] shows EC50 below 0.8 µM.
-- reply criterion not met

-- ask Please let me know if O=C(NCC(F)F)c1ccn(-c2cn3cc(NC(=O)C4CC4)nc3cn2)n1 [Example 38] shows EC50 below 0.8 µM.
-- reply criterion not met

Next:
-- ask Please let me know if O=C(NCC(F)F)c1ccn(-c2ccc3nc(NC(=O)C4CC4)cn3c2)n1 [Example 35] shows EC50 below 0.8 µM.
-- reply criterion not met

-- ask Please let me know if O=C(NCC(F)(F)F)c1cnn(-c2ccc3nc(NC(=O)C4CC4)cn3c2)c1 [Example 40] shows EC50 below 0.8 µM.
-- reply criterion met
